System: CWR22R;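 further: growth inhibition of 22Rv1 cells, read out with a cell viability assay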
method-summary: cells
Assay type: functional, cell-based
assay-context: Homo sapiens, 22Rv1
Description: SANGER: Inhibition of human 22RV1 cell growth in a cell viability assay.
Please provide measured pIC50 for the entries that follow.
Give bare numbers, as −log10 of the molar value.

C[C@]12O[C@H](C[C@]1(O)CO)n1c3ccccc3c3c4c(c5c6ccccc6n2c5c31)CNC4=O : 5.85

The record that follows has no pIC50 shown yet.
Task: Using the record for CC[C@]1(O)C[C@@H]2CN(CCc3c([nH]c4ccccc34)[C@@](C(=O)OC)(c3cc4c(cc3OC)N(C)[C@H]3[C@@](O)(C(=O)OC)[C@H](OC(C)=O)[C@]5(CC)C=CCN6CC[C@]43[C@@H]65)C2)C1 , report its pIC50.
Output: 8.01

---

Test system: NCI-H28
method-summary: cells
Assay type: functional, cell-based
assay-context: Homo sapiens
Description: SANGER: Inhibition of human NCI-H28 cell growth in a cell viability assay.
quantity-kind: log10 IC50 (log10 of the value in µM)
Answers are given as log10 of IC50 in µM.

N#C/C(=C1/Nc2ccccc2S1)c1ccnc(NCCc2cccnc2)n1 : 0.52
Cn1c(=O)n(-c2ccc(C(C)(C)C#N)cc2)c2c3cc(-c4cnc5ccccc5c4)ccc3ncc21 : -1.46
NC(=O)c1ncn([C@@H]2O[C@H](COP(=O)(O)O)[C@@H](O)[C@H]2O)c1N : 3.02
C[C@]12O[C@H](C[C@]1(O)CO)n1c3ccccc3c3c4c(c5c6ccccc6n2c5c31)CNC4=O : -0.08

The record that follows has no log10 IC50 shown yet.
Task: Form entry - test system: NCI-H28; read-out: log10 IC50; compound: Fc1cc(-c2cc[nH]/c(=N/c3ccc(-n4cnc(N5CCOCC5)n4)cc3)n2)cc(N2CCOCC2)c1;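 further: growth inhibition of human NCI-H28 cells, read out as cell viability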
Output: -0.47

---

System: MEG-01;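 further: growth inhibition of MEG-01 cells, read out by a cell viability assay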
method-summary: cells
Assay type: functional, cell-based
assay-context: Homo sapiens
Description: SANGER: Inhibition of human MEG-01 cell growth in a cell viability assay.
quantity-kind: IC50

Sample answers from the record:
O=c1cc(N2CCOCC2)oc2c(-c3cccc4c3sc3ccccc34)cccc12 : > 2 µM
CCNc1cc(N[C@H]2CC[C@@H](O)CC2)nc(Nc2ccc3c(ccn3Cc3ccccc3)c2)n1 : > 5.12 µM
Cn1c(=O)n(-c2ccc(C(C)(C)C#N)cc2)c2c3cc(-c4cnc5ccccc5c4)ccc3ncc21 : 0.0635 µM

The record that follows has no IC50 shown yet.
Task: Using the record for COc1cc(C)c(Sc2cnc(NC(=O)c3ccc(CNC(C)C(C)(C)C)cc3)s2)cc1C(=O)N1CCN(C(C)=O)CC1 (centres undefined) , report its IC50.
Output: > 10.2 µM

---

Please provide measured pIC50 for the entries that follow.
Tested on: RT-112
method-summary: cells
Type: functional, cell-based
assay-context: Homo sapiens
Description: SANGER: Inhibition of human RT-112 cell growth in a cell viability assay.
One number for each entry, as −log10 of the molar value.

Sample answers from the record:
CO[C@@]12[C@H](COC(N)=O)C3=C(C(=O)C(C)=C(N)C3=O)N1C[C@@H]1N[C@@H]12 [MITOMYCIN] : 6.75
CC[C@@]1(O)C(=O)OCc2c1cc1n(c2=O)Cc2cc3ccccc3nc2-1 [CAMPTOTHECIN] : 7.83

Task: Using the record for NC(=O)c1ncn([C@@H]2O[C@H](COP(=O)(O)O)[C@@H](O)[C@H]2O)c1N , report its pIC50.
Output: 2.73

---

Please provide measured IC50 for the entries that follow.
Test system: U-251
method-summary: cells
Assay type: functional, cell-based
assay-context: Homo sapiens
Description: SANGER: Inhibition of human U251 cell growth in a cell viability assay.

Sample answers from the record:
C[C@]1(c2nc3c(C(N)=O)cccc3[nH]2)CCCN1 : > 5000 nM
CC(C)=CC[C@@H](O)C1=CC(=O)c2c(O)ccc(O)c2C1=O : 1430 nM

Task: Form entry - test system: U-251; read-out: IC50; compound: C/C=C(/C)C(=O)O[C@H]1C(C)=C2[C@H]([C@@H]1OC(=O)CCCCCCC)[C@@](C)(OC(C)=O)C[C@H](OC(=O)CCC)[C@@]1(O)[C@H]2OC(=O)[C@@]1(C)O;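 further: growth inhibition of human U-251 cells, read out through a cell viability assay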
Output: < 2 nM
